method_description: activity coefficient (dimensionless); of the first substance listed, at infinite dilution; xn = mol fraction of the nth substance listed
particulars: 358.15 K; 101.33 kPa; Liquid; Chromatography; x1 = 0

| molecule | activity coefficient |
| --- | --- |
| CC(C)O [propan-2-ol] + CCCCCCCCCCCCCC[P+](CCCCCC)(CCCCCC)CCCCCC.N#CC(=C=[N-])C#N | 0.514 |
| CCCCCC [hexane] + CCCCCCCCCCCCCC[P+](CCCCCC)(CCCCCC)CCCCCC.N#CC(=C=[N-])C#N | 1.86 |
| C=CCCCC [hex-1-ene] + CCCCCCCCCCCCCC[P+](CCCCCC)(CCCCCC)CCCCCC.N#CC(=C=[N-])C#N | 1.46 |
| CCCC(C)=O [pentan-2-one] + CCCCCCCCCCCCCC[P+](CCCCCC)(CCCCCC)CCCCCC.N#CC(=C=[N-])C#N | 0.502 |
| CC#N [acetonitrile] + CCCCCCCCCCCCCC[P+](CCCCCC)(CCCCCC)CCCCCC.N#CC(=C=[N-])C#N | 0.671 |
| CCC(C)O (stereo not given) [butan-2-ol] + CCCCCCCCCCCCCC[P+](CCCCCC)(CCCCCC)CCCCCC.N#CC(=C=[N-])C#N | 0.486 |
| C1CCCC1 [cyclopentane] + CCCCCCCCCCCCCC[P+](CCCCCC)(CCCCCC)CCCCCC.N#CC(=C=[N-])C#N | 1.03 |
| CCCCCCC [heptane] + CCCCCCCCCCCCCC[P+](CCCCCC)(CCCCCC)CCCCCC.N#CC(=C=[N-])C#N | 2.1 |
| C#CCCCCCC [1-octyne] + CCCCCCCCCCCCCC[P+](CCCCCC)(CCCCCC)CCCCCC.N#CC(=C=[N-])C#N | 1.21 |
| CC(C)CO [2-methyl-1-propanol] + CCCCCCCCCCCCCC[P+](CCCCCC)(CCCCCC)CCCCCC.N#CC(=C=[N-])C#N | 0.429 |
| O [water] + CCCCCCCCCCCCCC[P+](CCCCCC)(CCCCCC)CCCCCC.N#CC(=C=[N-])C#N | 1.54 |
| CCC(=O)CC [pentan-3-one] + CCCCCCCCCCCCCC[P+](CCCCCC)(CCCCCC)CCCCCC.N#CC(=C=[N-])C#N | 0.494 |
| CCC[N+](=O)[O-] [1-nitropropane] + CCCCCCCCCCCCCC[P+](CCCCCC)(CCCCCC)CCCCCC.N#CC(=C=[N-])C#N | 0.577 |
| CC(C)CC(C)(C)C [2,2,4-trimethylpentane] + CCCCCCCCCCCCCC[P+](CCCCCC)(CCCCCC)CCCCCC.N#CC(=C=[N-])C#N | 2.31 |
| C1=CCCCC1 [cyclohexene] + CCCCCCCCCCCCCC[P+](CCCCCC)(CCCCCC)CCCCCC.N#CC(=C=[N-])C#N | 0.958 |

###

method_description: activity coefficient (dimensionless); of the first substance listed, at infinite dilution; xn = mol fraction of the nth substance listed
particulars: 358.15 K; 101.33 kPa; Liquid; Chromatography; x1 = 0

| molecule | activity coefficient |
| --- | --- |
| CCCCCCCC [octane] + CCCCCCCCCCCCCC[P+](CCCCCC)(CCCCCC)CCCCCC.N#CC(=C=[N-])C#N | 2.38 |
| C=Cc1ccccc1 [styrene] + CCCCCCCCCCCCCC[P+](CCCCCC)(CCCCCC)CCCCCC.N#CC(=C=[N-])C#N | 0.57 |
| c1ccsc1 [thiophene] + CCCCCCCCCCCCCC[P+](CCCCCC)(CCCCCC)CCCCCC.N#CC(=C=[N-])C#N | 0.461 |
| CCO [ethanol] + CCCCCCCCCCCCCC[P+](CCCCCC)(CCCCCC)CCCCCC.N#CC(=C=[N-])C#N | 0.485 |
